Please provide measured GI50 for the entries that follow.
test system: OVCAR-4; test: NCI tumour cell line growth inhibition, 48 h
Active and inactive are the calls of the source. No stated cut-off is given here; in the data, active = GI50 up to about 1.1 µM and inactive = higher.

Example cases with answers are listed next.
COc1ccc(-c2nc(SCC(=O)NNC(=S)Nc3ccccc3)[nH]c2-c2ccc(OC)cc2)cc1 = 33.5 µM (inactive)
N=c1oc2ccccc2cc1-c1nc2ccccc2[nH]1 = > 100 µM (inactive)
CC(C)(Cl)C(Br)CCC(Br)(CCl)C(Cl)CBr (stereo unspecified) = > 10 µM (inactive)
COc1ccc2c(c1)[n+]([O-])c1cc(C#N)ccc1[n+]2[O-] = 12.4 µM (inactive)
Cc1cccc(-c2nnc3s/c(=C\c4ccc(N(C)C)cc4)c(=O)n23)c1 = > 100 µM (inactive)
NC(=O)C(=CN1CC(=O)NC1=S)C(N)=O = > 100 µM (inactive)

Quick one: give me GI50 for each item below, same order please.
1. O=S(=O)(CCCCl)SCCCCl
2. C(=C(c1ccc(OC2CCCCO2)cc1)c1ccc(OC2CCCCO2)cc1)c1ccccc1 (stereo unspecified)
3. Cn1c2ccccc2c(=O)c2c([N+](=O)[O-])ccc(NCCN)c21
4. COc1ccc(C[C@H](N)C(=O)NC2C(CO)OC(n3cnc4c(N(C)C)ncnc43)C2O)cc1 (stereo partly specified)
5. O=C(N/C(=C\c1ccc(/C=C(\NC(=O)c2ccccc2)c2nc3ccccc3s2)cc1)c1nc2ccccc2s1)c1ccccc1

1. 15.3 µM (inactive)
2. 0.392 µM (active)
3. 12.2 µM (inactive)
4. 0.389 µM (active)
5. 5.08 µM (inactive)

Give GI50 for each of the items listed below.
1. NCCCn1c(Cl)nc2ccccc21
2. CC1=C(C(=O)OCc2ccncc2)C(C2=C(C)SCCS2)C(C(=O)OCc2ccncc2)=C(C)N1
3. CC(=O)NC1=C(NCCCl)C(=O)c2ccccc2C1=O
4. C=CC[C@H](C[C@H](C[C@H](C[C@H](C[C@H](C[C@H](C[C@H](C[C@H](C[C@H](C[C@H](CCCCC)OC)OC)OC)OC)OC)OC)OC)OC)OC)OC
5. CCC(=O)N(O)C(C)(C)C

> 100 µM (inactive)
38.3 µM (inactive)
44.6 µM (inactive)
> 100 µM (inactive)
> 100 µM (inactive)

Below are 5 molecules. Give each one its GI50.
1. O=S1(=O)CCN(Cc2ccccc2)/C1=N\S(=O)(=O)c1ccc(Cl)cc1
2. Cc1c(F)c(N)c2c(=O)cc(-c3ccc(NC(=O)CN(C)C)c(F)c3)oc2c1F
3. Cc1cc2c3ccccc3n3c2c2c1OC1(C)CCC(C2C1)C3(C)C (stereo unspecified)
4. CCCCCCCCCCCCO[PH](=O)OCCCCCCCCCCCC
5. O=[N+]([O-])c1ccc2nc(/C(=N/Nc3ccccc3)C(O)c3ccco3)c(O)nc2c1 (stereo unspecified)

1: 18.8 µM (inactive); 2: 23.6 µM (inactive); 3: > 25 µM (inactive); 4: > 100 µM (inactive); 5: > 100 µM (inactive)

###

test system: T47D; test: NCI tumour cell line growth inhibition, 48 h
Counter-ions that a name gives are not always drawn. Active and inactive are the calls of the source. No stated cut-off is given here; in the data, active = GI50 up to about 1.1 µM and inactive = higher.
Choose the fitting class; nothing outside y (active), n (inactive) is accepted.

Example entries and their recorded answers appear below.
O=S1(=O)CCN(Cc2ccccc2)/C1=N\S(=O)(=O)c1ccc(Cl)cc1 = n
CC(=O)c1cccc(NC(=O)C(=O)C(c2cnc3ccc([N+](=O)[O-])cc3n2)[N+](=O)[O-])c1 (stereo unspecified) = n
c1ccc(CSCCc2ccncc2)cc1 = n
CSC1=C(c2ccc(Cl)cc2)SC(N2CCCCC2)N1c1ccc([N+](=O)[O-])cc1 (stereo unspecified) = n
CCOC(=O)CON=c1c2ccccc2ccc2ccccc12 = n
CCOC(=O)c1csc(C(CSCc2ccc(OC)cc2)N2C(=O)c3ccccc3C2=O)n1 (stereo unspecified) = n
Cn1c(N/N=C/c2ccc(Cl)cc2)nc(-c2ccc(Cl)cc2)c(C#N)c1=O = n
CCC1=NC(N/N=C/c2ccco2)=N/C1=C\c1ccco1 = n
C=C(C)CC1(O[Si](C)(C)C)C(=O)C(OCC)=C1OCC (stereo unspecified) = n
CN1CCC2(CC1)/C(=N/C1CCCCC1)NC(=O)N2c1ccccc1 = n

Give the logged outcome of this assay for the following compound: "CCCN1C(=O)CN(S(=O)(=O)c2ccc(Cl)cc2)C1=O"
n

Test call for this compound, please: CCOC(=O)CCC(NC(=O)c1ccc(OCc2nc3cc(C(F)(F)F)ccc3nc2-c2ccccc2)cc1)C(=O)OCC (stereo unspecified)
n

Tell me the assay call for "O=C(/C=C/C=C/c1ccccc1)c1ccccc1" please.
n

Status in this test for O=C(/C=C/c1ccc(O)c(O)c1)NC(CO)C(=O)O (stereo unspecified) ?
n

Name the outcome recorded for N=c1ccn2c(n1)O[C@H]1[C@H](O)[C@@H](CO)O[C@H]12 [ANCITABINE HYDROCHLORIDE] in the assay.
n

Per the assay record, what outcome was assigned to CNc1cccc2c1C(C)C[C@]1(C)C(=O)Nc3ccccc3[C@H]21 (stereo partly specified) ?
n

Which outcome was entered for the compound O=c1[nH]c(=O)n(C2CC(O)C(CO)O2)c2nc3ccc4ccccc4c3nc12 (stereo unspecified) in this test?
n

Just curious, what result did "Nn1c(-c2ccccc2)n[nH]c1=O" get here?
n

Dear all, I need the recorded test outcome for "Cc1cc(/N=N/c2c(O)ccc3ccccc23)ccc1/N=N/c1cccc([N+](C)(C)C)c1" , thank you.
n

Identify the outcome logged in this assay for the compound shown: "CC(=O)NC1=C(NCCCl)C(=O)c2ccccc2C1=O"
n

Per the records of this test, what outcome belongs to "CC(C)(CO)NC(=O)c1cccc(C(=O)NC(C)(C)CO)c1Br" ?
n

Returns: the outcome recorded for "O=c1c2cc(I)ccc2nc(SCc2n[nH]c(=S)o2)n1Cc1ccccc1" in this assay.
n

What did the test return for "CCOC(=O)c1cccc(/N=N/c2nc[nH]c2/C=C/C(=O)OC)c1" ?
n

Please indicate how the test categorized "[N-]=[N+]=Nc1c([N+](=O)[O-])c(=O)n2c3c(cccc13)CCC2" .
n

Please state the recorded outcome for this compound: "C/C(=C1/N=C(c2ccccc2)OC1=O)c1cccs1"
n

###

test system: HOP-62; assay: NCI tumour cell line growth inhibition, 48 h
The source made the active and inactive calls. Rule as the data show it: active = GI50 up to about 1.1 µM and inactive = higher.
Use one of these outcomes when replying: T for active, F for inactive

Worked cases, answers included:
NCCCn1c(Cl)nc2ccccc21 = F
Cc1nn(-c2ccccc2)c2c1CC(=O)Nc1ccccc1-2 = F
C1OC1C1CO1 (stereo unspecified) = F
COC(=O)C(=O)C(C(=O)C(=O)Nc1nnc(S)[nH]1)c1nc2ccc([N+](=O)[O-])cc2nc1O (stereo unspecified) = F
N[C@H](C(=O)O)[C@@H](Cl)CC(=O)O = F

How was "CCCNCC(=O)O[C@]1(CC)C(=O)OCc2c1cc1n(c2=O)Cc2cc3ccccc3nc2-1" classified in this test?
T

Each compound tested received a call. Report the one for "CC1=C(C(=O)OCc2ccncc2)C(C2=C(C)SCCS2)C(C(=O)OCc2ccncc2)=C(C)N1" .
F

Returns: the outcome recorded for "COc1cc2ccccc2oc1=O" in this assay.
F

###

system: HCC 2998; assay: NCI tumour cell line growth inhibition, 48 h
Calls of active or inactive are those of the source. No stated cut-off is given here; in the data, active = GI50 up to about 1.1 µM and inactive = higher.
Bench note: report the call from true (active), false (inactive)

CC(C)[C@](O)(C(=O)OCC1=CC[N+]2([O-])CC[C@@H](O)[C@@H]12)[C@H](C)O (stereo partly specified) [INDICINE N-OXIDE] = false
O=C1C(/N=N/c2ccc(-c3nc4ccccc4o3)cc2)NC(=S)N1c1ccccc1 (stereo unspecified) = false
COc1ccc(CNc2nc3cc(C(F)(F)F)ccc3nc2C(=O)O)cc1OC = false
COc1ccccc1NC(=O)C1=C(C)NC(C)=C(C(=O)Nc2ccccc2OC)C1c1ccc(C)cc1 = false
COC(=O)C1C(OC(=O)C(Cl)(c2ccccc2)c2ccccc2)CC2CCC1N2C (stereo unspecified) = false
O=[N+]([O-])c1ccc2nc(/C(=N/Nc3ccccc3)C(O)c3ccco3)c(O)nc2c1 (stereo unspecified) = false
O=C1C(Cl)C(c2cccc(O)c2)N1n1cnc2ccccc2c1=O (stereo unspecified) = false
Cc1cc(C)c(S(=O)(=O)ONC(=O)OC(C)(C)C)c(C)c1 = false
Cc1nc2c(nc1C)C(=O)c1cc(O)ccc1C2=O = false
Cc1cccc(-c2nnc3s/c(=C\c4ccc(N(C)C)cc4)c(=O)n23)c1 = false

Hello, I am checking results. What call was entered for COC(=O)/C(=N\N)C(C(=O)C(=O)Nc1cc(Cl)ccc1Cl)c1nc2ccc([N+](=O)[O-])cc2nc1O (stereo unspecified) ?
false

Please indicate how the test categorized O=C(/C=C/c1ccc(O)c(O)c1)NC(CO)C(=O)O (stereo unspecified) .
false

Hi, sorry to bother you, what did the test record for "Clc1ccc2c(Cl)ncnc2c1" ?
false

GET /call?item= "N#Cc1cc(NC(=O)c2ccccc2)c(=O)n2c1[nH]c1ccccc12" returns the recorded outcome of this test.
false

Check the results log: what was the call for "CC1(C)CC(=O)C=C(NC(=O)c2ccccc2)C1" ?
false

Name the outcome recorded for CC(=O)C(=O)NC1/C=C(C)\C=C/C(O)C/C=C(C)\C=C/C(O)CC2OC(=O)C1(C)C(=O)C2C (stereo unspecified) in the assay.
false
